- TARGET: HIV-1 Env of isolate 93MW959 (subtype C) (HIV-1)
- EXPERIMENT_SUMMARY: cell-based or functional assay
QUANTITY: IC50 (µg/mL), pseudovirus neutralization

- BINDER: "PGT-126 (antibody, V domains shown) VH: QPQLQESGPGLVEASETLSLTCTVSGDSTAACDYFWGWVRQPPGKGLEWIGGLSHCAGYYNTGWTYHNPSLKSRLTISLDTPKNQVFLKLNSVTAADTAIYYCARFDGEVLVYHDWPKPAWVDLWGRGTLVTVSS VL: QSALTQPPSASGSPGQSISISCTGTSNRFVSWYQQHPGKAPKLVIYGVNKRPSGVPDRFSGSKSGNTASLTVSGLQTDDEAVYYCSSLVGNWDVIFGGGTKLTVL"
  QUANTITY: "IC50 (µg/mL), pseudovirus neutralization"
  VAL: "9.44 µg/mL"
